Origin of values: the kinase profiling compilation of Christmann-Franck et al. (2016)

Some compounds, each annotated with its measured residual activity.
Assay target: ROS1 (human) (UniProt P08922)
Sequence (P08922 whole entry, looked up): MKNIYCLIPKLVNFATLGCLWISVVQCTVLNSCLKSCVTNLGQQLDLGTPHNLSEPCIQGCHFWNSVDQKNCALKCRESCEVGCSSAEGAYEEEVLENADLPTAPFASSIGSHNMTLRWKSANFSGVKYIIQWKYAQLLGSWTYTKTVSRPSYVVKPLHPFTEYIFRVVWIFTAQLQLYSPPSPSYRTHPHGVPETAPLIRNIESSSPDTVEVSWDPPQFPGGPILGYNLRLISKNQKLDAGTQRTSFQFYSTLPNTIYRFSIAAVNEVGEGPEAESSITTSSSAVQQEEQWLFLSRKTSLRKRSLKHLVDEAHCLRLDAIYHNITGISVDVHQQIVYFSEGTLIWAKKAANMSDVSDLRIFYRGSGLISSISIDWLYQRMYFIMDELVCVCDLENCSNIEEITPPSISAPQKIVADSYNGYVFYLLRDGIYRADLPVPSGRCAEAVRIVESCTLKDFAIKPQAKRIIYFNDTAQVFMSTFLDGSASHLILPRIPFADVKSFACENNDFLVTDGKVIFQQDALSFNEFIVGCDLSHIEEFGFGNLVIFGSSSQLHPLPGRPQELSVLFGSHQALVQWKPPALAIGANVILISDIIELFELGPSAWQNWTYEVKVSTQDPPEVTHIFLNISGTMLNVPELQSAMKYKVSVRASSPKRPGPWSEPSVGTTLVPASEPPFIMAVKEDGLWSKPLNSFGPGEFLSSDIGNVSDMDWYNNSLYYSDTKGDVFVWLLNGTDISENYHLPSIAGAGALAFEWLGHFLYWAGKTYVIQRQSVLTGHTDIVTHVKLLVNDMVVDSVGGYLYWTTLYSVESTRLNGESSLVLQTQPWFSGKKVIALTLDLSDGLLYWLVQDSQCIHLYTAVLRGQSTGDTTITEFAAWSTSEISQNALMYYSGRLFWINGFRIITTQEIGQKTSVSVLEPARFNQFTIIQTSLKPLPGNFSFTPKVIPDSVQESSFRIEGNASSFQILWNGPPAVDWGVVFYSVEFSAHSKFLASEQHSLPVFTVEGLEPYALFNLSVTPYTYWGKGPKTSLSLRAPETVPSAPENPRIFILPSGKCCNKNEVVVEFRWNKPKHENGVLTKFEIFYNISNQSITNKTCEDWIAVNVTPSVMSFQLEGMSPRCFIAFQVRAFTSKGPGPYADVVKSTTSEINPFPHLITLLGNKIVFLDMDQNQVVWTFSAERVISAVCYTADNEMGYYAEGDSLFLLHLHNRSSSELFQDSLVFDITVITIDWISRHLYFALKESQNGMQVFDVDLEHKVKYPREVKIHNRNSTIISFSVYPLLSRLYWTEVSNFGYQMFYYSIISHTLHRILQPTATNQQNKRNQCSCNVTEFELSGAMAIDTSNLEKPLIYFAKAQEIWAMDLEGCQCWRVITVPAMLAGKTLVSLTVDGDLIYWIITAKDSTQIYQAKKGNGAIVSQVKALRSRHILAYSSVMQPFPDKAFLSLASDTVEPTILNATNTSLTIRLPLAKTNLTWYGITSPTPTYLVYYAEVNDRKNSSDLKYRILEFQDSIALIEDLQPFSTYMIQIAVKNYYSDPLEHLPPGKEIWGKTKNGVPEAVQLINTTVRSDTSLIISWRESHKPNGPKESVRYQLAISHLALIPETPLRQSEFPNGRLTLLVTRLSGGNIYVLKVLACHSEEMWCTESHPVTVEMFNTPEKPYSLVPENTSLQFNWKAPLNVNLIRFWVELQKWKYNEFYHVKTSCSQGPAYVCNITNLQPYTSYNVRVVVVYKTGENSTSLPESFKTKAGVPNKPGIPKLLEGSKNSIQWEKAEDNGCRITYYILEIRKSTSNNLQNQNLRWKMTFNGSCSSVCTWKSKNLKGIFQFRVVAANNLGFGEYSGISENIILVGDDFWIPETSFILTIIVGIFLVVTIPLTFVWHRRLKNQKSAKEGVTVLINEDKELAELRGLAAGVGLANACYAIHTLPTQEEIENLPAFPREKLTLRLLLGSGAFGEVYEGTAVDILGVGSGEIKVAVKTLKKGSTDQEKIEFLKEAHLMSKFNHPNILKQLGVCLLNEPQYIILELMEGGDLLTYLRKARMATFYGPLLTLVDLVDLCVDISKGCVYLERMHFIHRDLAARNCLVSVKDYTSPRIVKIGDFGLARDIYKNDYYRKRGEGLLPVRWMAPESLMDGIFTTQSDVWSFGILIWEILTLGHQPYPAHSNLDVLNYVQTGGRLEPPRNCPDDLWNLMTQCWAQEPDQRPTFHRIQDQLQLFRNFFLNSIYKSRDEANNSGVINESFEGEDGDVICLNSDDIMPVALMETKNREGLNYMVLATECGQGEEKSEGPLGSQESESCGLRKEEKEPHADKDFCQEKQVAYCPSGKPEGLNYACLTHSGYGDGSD
Test method notes: radiometric filter-binding kinase assay, Kinase HotSpot
Measurement setup: compound 0.5 µM; ATP 10 µM
// units = %; emit number, no label

| Substance smiles | Measured value |
| --- | --- |
| O=C1c2ccccc2-c2nc3nnnn3nc21 | 91.1 |
| O=C1Nc2ccc(Br)cc2/C1=C\c1cc2c([nH]1)CCCC2 | 98.6 |
| COc1cc(Nc2c(C#N)cnc3cc(OCCCN4CCN(C)CC4)c(OC)cc23)c(Cl)cc1Cl | 95.4 |
| N#Cc1c[nH]c2c[nH]/c(=N\Cc3cccnc3)cc2/c1=N\c1ccc(F)c(Cl)c1 | 98.3 |
| COc1cc2ncnc(Nc3ccc(OCc4ccccc4)cc3)c2cc1OC | 98 |

Exercise: What value of residual activity on ROS1 (human) (UniProt P08922) does c1ccc2c(-c3ccncc3)c[nH]c2c1 have?
Solution: 81.6

Exercise: Next record, please: Ic1cccc(CSc2nnc(-c3ccncc3)o2)c1
Solution: 99.3

====

Form field: residual activity (one value per entry).
Assay target: PASK (human)
Test method notes: radiometric filter-binding kinase assay, Kinase HotSpot
Measurement setup: compound 0.5 µM; ATP 10 µM
API: value field is a number in %; no unit string.

| Substance smiles | Assay target | residual activity (%) |
| --- | --- | --- |
| Cc1cncc2cccc(S(=O)(=O)N3CCCN(C(=O)CN)C[C@H]3C)c12 | PASK (human) | 105 |
| Cc1nc(-c2ccccc2)c(-c2ccncc2)o1 | PASK (human) | 98.1 |
| CS(=O)(=O)CCNCc1ccc(-c2ccc3ncnc(Nc4ccc(OCc5cccc(F)c5)c(Cl)c4)c3c2)o1 | PASK (human) | 101 |
| COc1cc2ncnc(Nc3ccc(Oc4ccccc4)cc3)c2cc1OC | PASK (human) | 104 |
| C[C@@H]1CCN(C(=O)CC#N)C[C@@H]1N(C)c1ncnc2[nH]ccc12 | PASK (human) | 105 |

Exercise: Given the molecule CC(C)(C)c1cc(C=C(C#N)C#N)cc(Br)c1O , what is its reported residual activity?
Solution: 96.7

====

Assay target: UniProt:Q96RR4
Sequence (Q96RR4 whole entry, looked up): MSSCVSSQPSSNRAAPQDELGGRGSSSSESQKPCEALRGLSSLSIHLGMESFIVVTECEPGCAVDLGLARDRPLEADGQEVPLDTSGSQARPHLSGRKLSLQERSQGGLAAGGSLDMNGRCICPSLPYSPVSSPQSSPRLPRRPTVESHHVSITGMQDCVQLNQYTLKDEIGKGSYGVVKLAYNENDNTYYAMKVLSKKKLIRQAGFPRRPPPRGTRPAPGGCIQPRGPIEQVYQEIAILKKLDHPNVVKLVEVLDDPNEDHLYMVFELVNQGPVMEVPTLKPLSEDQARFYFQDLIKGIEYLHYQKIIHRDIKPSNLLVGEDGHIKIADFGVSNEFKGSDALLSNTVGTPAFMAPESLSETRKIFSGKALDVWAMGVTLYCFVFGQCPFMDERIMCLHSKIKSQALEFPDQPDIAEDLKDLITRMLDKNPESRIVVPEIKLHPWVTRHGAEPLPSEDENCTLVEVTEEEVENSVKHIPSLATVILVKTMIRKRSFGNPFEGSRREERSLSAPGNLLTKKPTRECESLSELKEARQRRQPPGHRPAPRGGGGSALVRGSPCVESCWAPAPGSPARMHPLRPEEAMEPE
Test method notes: radiometric filter-binding kinase assay, Kinase HotSpot
Measurement setup: compound 0.5 µM; ATP 10 µM
Recorded residual activity for the following molecules
Supply the numeric figure in %, leaving out any unit text.

Recorded residual activity, per entry:
| Substance smiles | Measured value |
| --- | --- |
| COc1cc2ncnc(Nc3ccc(OCc4ccccc4)cc3)c2cc1OC | 99.7 |
| O=C1C(Cl)=C(N2C(=O)CCC2=O)C(=O)c2ccccc21 | 86.1 |
| COc1ccc(Cl)cc1NC(=O)Nc1cc(C)nc2ccccc12 | 93.2 |

Exercise: Which residual activity value belongs to C[C@@H]1CCN(C(=O)CC#N)C[C@@H]1N(C)c1ncnc2[nH]ccc12 ?
Solution: 97.7

Exercise: What would you report for Cc1nc(-c2ccccc2)c(-c2ccncc2)o1 ?
Solution: 105

Exercise: // repeat for COc1cc2ncnc(Nc3ccc(Oc4ccccc4)cc3)c2cc1OC and report
Solution: 104

====

Assay target: CSNK1G3 (human) (UniProt Q9Y6M4)
Sequence (Q9Y6M4 whole entry, looked up): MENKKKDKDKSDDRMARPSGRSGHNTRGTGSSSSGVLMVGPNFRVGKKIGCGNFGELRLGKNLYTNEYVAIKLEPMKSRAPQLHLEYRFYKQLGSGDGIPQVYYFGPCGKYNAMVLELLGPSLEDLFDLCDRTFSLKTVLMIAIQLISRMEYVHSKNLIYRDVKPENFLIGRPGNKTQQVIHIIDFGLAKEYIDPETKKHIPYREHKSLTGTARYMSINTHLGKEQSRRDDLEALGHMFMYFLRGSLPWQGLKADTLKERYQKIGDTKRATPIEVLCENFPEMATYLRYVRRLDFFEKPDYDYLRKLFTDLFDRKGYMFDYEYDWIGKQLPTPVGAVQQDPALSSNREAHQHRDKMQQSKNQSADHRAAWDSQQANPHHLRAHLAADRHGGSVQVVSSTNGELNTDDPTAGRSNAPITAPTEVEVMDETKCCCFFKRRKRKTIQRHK
Test method notes: radiometric filter-binding kinase assay, Kinase HotSpot
Measurement setup: compound 0.5 µM; ATP 10 µM
Measured residual activity of individual entries
Don't forget the unit after the number, please.

In the examples that follow, each entry is paired with its recorded residual activity.
| Substance smiles | residual activity |
| --- | --- |
| C[C@@H]1CCN(C(=O)CC#N)C[C@@H]1N(C)c1ncnc2[nH]ccc12 | 101% |
| Ic1cccc(CSc2nnc(-c3ccncc3)o2)c1 | 75.9% |
| COc1ccc(C(=O)Nc2sc3c(c2C(N)=O)CCCC3)cc1OC | 91.7% |
| COc1ccc2c(c1)/C(=C/c1cnc[nH]1)C(O)=N2 | 103% |

Next, consider the following compound.
Exercise: What value of residual activity on CSNK1G3 (human) (UniProt Q9Y6M4) does CS(=O)(=O)CCNCc1ccc(-c2ccc3ncnc(Nc4ccc(OCc5cccc(F)c5)c(Cl)c4)c3c2)o1 have?
Solution: 104%
